system: Receptor tyrosine-protein kinase erbB-2 (Homo sapiens, UniProt P04626)
Sequence (P04626 whole entry, the tested form may be a part): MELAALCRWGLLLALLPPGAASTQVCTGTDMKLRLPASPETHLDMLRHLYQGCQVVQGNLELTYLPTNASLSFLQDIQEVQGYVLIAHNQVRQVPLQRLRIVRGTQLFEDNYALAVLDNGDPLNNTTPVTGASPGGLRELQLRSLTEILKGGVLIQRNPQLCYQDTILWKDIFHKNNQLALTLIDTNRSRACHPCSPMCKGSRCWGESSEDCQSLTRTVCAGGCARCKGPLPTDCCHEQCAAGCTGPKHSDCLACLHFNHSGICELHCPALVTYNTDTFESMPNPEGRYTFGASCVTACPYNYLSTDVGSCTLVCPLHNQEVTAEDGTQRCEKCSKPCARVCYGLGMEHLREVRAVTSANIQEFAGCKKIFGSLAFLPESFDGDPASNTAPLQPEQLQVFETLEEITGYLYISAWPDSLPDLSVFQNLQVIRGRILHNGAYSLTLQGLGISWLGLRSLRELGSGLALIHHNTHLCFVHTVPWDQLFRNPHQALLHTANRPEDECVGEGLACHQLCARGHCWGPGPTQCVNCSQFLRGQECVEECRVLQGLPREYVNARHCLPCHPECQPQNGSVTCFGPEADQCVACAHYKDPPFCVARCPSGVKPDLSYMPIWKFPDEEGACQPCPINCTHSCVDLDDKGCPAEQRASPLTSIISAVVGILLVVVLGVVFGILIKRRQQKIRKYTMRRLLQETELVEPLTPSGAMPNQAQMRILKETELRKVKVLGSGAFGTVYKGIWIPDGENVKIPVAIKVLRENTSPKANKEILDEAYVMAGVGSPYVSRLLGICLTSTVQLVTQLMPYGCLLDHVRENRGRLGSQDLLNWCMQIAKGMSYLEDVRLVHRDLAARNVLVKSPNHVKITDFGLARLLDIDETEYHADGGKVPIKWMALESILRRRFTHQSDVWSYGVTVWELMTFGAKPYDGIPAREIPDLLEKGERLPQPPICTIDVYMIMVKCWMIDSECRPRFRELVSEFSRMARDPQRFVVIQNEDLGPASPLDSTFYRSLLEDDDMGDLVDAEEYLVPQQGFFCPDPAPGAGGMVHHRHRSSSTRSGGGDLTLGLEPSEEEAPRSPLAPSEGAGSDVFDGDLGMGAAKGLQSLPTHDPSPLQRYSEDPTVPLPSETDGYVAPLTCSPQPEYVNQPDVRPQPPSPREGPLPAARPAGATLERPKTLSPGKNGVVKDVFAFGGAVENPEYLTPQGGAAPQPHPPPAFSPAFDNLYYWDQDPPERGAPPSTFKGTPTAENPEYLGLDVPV
assayText: Binding affinity to HER2 extracellular domain (unknown origin) by SPR assay
valueKind: pKd
pKd is defined as minus the log10 of a concentration measured in mol/L.

Query block: Item N=C(N)NCCC[C@H](N)C(=O)N[C@@H](CC(=O)N[C@@H](Cc1ccccc1)C(=O)O)c1cccc2ccccc12 : provide pKd
Result block: 6.00

---

assayText: Drug degradation in human SKBR3 cells at 50 uM after 4 hrs by HPLC method
Type: ADME, cell-based, SK-BR-3
testParameters: read-out: Drug degradation
valueKind: metabolised at 4 h, 50 µM
Just the number plus its unit, please.

Query block: Provide one value: measured metabolised at 4 h, 50 µM of COc1cccc2c1C(=O)c1c(O)c3c(c(O)c1C2=O)C[C@@](O)(C(=O)CO)C[C@@H]3O[C@H]1C[C@H](NC(=O)CCCC(=O)N[C@@H](CCCNC(=N)N)C(=O)N[C@@H](CC(=O)N[C@@H](Cc2ccccc2)C(=O)O)c2cccc3ccccc23)[C@H](O)[C@H](C)O1
Result block: 50%

---

assayText: Antiproliferative activity against human BT474 spheroids after 3 days by CellTiter-Glo assay
Assay type: functional
testParameters: BT-474, 72 h
valueKind: IC50 (nM)
Response body: numeric value in nM, unit text excluded.

Query block: Assign IC50 to the following record: COc1cccc2c1C(=O)c1c(O)c3c(c(O)c1C2=O)C[C@@](O)(C(=O)CO)C[C@@H]3O[C@H]1C[C@H](N)[C@H](O)[C@H](C)O1
Result block: 180

---

system: Receptor tyrosine-protein kinase erbB-2 (Homo sapiens, UniProt P04626)
assayText: Binding affinity to HER2 domain-4 (unknown origin) by SPR assay
valueKind: Kd (mM)
Give the number; mM is assumed, so skip it.

Query block: Tell me measured Kd for COc1cccc2c1C(=O)c1c(O)c3c(c(O)c1C2=O)C[C@@](O)(C(=O)CO)C[C@@H]3O[C@H]1C[C@H](N)[C@H](O)[C@H](C)O1 please.
Result block: 11

---

assayText: Antiproliferative activity against human SKBR3 cells after 24 hrs by CellTiter-Glo assay
Assay type: functional, cell-based
testParameters: SK-BR-3, 24 h
valueKind: pIC50
Units for pIC50: none; it is -log10 of a concentration expressed in mol/L.

Query block: Return pIC50 (reported value) for this molecule: COc1cccc2c1C(=O)c1c(O)c3c(c(O)c1C2=O)C[C@@](O)(C(=O)CO)C[C@@H]3O[C@H]1C[C@H](N)[C@H](O)[C@H](C)O1
Result block: 7.47
